Measured Kd, listed per entry.
- assayedTarget: T1, human mesothelin (human, UniProt Q13421 296-580, limits assumed)
- T1 construct: also called Human MSLN
- T1 sequence (Q13421 other isoform, or with tags, fused parts or gaps limits assumed): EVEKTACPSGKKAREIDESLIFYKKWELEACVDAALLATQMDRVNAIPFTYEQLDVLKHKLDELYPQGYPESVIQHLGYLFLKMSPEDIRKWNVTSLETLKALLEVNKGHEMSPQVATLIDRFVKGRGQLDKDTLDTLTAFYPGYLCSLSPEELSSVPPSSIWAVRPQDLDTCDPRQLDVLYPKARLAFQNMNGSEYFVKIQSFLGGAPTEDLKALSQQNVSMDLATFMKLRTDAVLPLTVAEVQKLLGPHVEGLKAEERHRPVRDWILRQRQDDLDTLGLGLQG
- assayMethodText: SPR
measuredEndpoint: Kd (nM)

HuAb17 (antibody, V domains shown, fully human antibody) VH: EVQLVQSGAEVKEPGASVKVSCKASGDTFNRYYVHWARQAPGQGLEWMGIINPSGVSTTYAQKFQGRVTMTRDTPTNTVYMELGSLRPEDTAVYFCAESRGSGYNYFAMDVWGQGTLVTVSS VL: SYELTQPPSVSVSPGQTADITCSGDKLGDKYASWYQQKPGQSPVLVIYQDNRRPSGIPERFSGSNSGNTATLTISGTQAMDEADYYCQAWDSDTYVFGPGTKVTVL	2.6
HuAM15 (antibody, V domains shown, fully human antibody) VH: EVQLVQSGAEVKKPGASVKVSCKASGDTFKRYYVHWVRQAPGQGLEWMGIINPSGVSTTYAQKFQGRVTMTRDTSTSTVYMELSSLRSEDTAVYYCAEVRGSGFNYFGMDVWGQGTLVTVSS VL: SYELTQPPSVSVSPGQTASITCSGDKLGDKYASWYQQKPGQSPVLVIYQDNRRPSGIPERFSGSNSGNTATLTISGTQAMDEADYYCQAWDSDTYVFGTGTKVTVL	0.31
HuAM1 (antibody, V domains shown, fully human antibody) VH: EVQLVQSGAEVKKPGASVKVSCKASGDTFKRYYVQWVRQAPGQGLEWMGIINPSGVSTTYAQKFQGRVTMTRDTSTSTVYMELSSLRSEDTAVYYCAESRGSGYNYFAMDVWGQGTLVTVSS VL: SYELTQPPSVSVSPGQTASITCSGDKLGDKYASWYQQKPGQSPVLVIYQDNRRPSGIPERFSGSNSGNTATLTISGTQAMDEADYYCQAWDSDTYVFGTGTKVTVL	2.7
HuAM17 (antibody, V domains shown, fully human antibody) VH: EVQLVQSGAEVKKPGASVKVSCKASGDTFNRYYVQWVRQAPGQGLEWMGIINPSGVSTTYAQKFQGRVTMTRDTSTSTVYMELSSLRSEDTAVYYCAESRVPGYNIFAMDVWGQGTLVTVSS VL: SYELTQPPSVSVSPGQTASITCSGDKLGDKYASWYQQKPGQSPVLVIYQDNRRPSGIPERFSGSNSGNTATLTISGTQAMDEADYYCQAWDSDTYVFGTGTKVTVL	0.53
HuAM16 (antibody, V domains shown, fully human antibody) VH: EVQLVQSGAEVKKPGASVKVSCKASGDTFNRYYVQWVRQAPGQGLEWMGIINPSGVSTTYAQKFQGRVTMTRDTSTSTVYMELSSLRSEDTAVYYCAETRGSGFNYFGMDVWGQGTLVTVSS VL: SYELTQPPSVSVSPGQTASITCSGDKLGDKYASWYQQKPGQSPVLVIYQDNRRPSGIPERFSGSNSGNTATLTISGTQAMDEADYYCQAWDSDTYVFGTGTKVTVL	0.46
HuAM6 (antibody, V domains shown, fully human antibody) VH: EVQLVQSGAEVKKPGASVKVSCKASGDTFNRYYVHWVRQAPGQGLEWMGIINPSGVSTTYAQKFQGRVTMTRDTSTSTVYMELSSLRSEDTAVYYCAESRVPGYNNFAMDVWGQGTLVTVSS VL: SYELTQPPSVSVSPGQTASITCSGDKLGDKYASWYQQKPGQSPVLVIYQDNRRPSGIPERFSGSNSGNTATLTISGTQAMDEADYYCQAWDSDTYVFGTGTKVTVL	1
